Just for reference, patent US10519134B2 is where these values come from.

Reported pIC50 values for the following compounds.
biological target: MAGL (Mus musculus, UniProt O35678); construct: Proteomes (mouse brain membrane fraction or cell lysates); experiment: In vitro competitive activity-based protein profiling (mouse), MAGL gel band; settings: mouse
pIC50: −log10 of the molar value.

>>> recorded_value("CC(=O)Nc1ccn(C(=O)N2CCC3(CCCN3Cc3ccc(C(F)(F)F)cc3N3CCN(C4CC4)CC3)CC2)n1")
"6.00 to 7.00"
>>> recorded_value("CC(=O)Nc1ccn(C(=O)N2CCC3(CCCN3Cc3ccc(C(F)(F)F)cc3Oc3nc4ccccc4s3)CC2)n1")
"≥ 7.00"
>>> recorded_value("CC(=O)Nc1ccn(C(=O)N2CCC3(CCCN3Cc3ccc4c(ccn4C)c3)CC2)n1")
"5.00 to 6.00"
>>> recorded_value("CC(=O)NC1CCN(c2cc(C(F)(F)F)ccc2CN2CCN(C(=O)n3ccc(NS(C)(=O)=O)n3)CC2)CC1")
"≥ 7.00"
>>> recorded_value("CS(=O)(=O)Nc1ccn(C(=O)N2CCN(Cc3ccc(Cl)cc3N3CCCC3)CC2)n1")
"≥ 7.00"
>>> recorded_value("CCc1cc(CN2CCCC23CCN(C(=O)n2ccc(NC(C)=O)n2)CC3)ccc1F")
"≥ 7.00"
>>> recorded_value("CC(=O)N1CCN(c2cc(CN3CCN(C(=O)n4ccc(NS(C)(=O)=O)n4)CC3)ccc2Cl)CC1")
"6.00 to 7.00"
>>> recorded_value("CC(=O)Nc1ccn(C(=O)N2CCC3(CCCN3Cc3ccc(Cl)cc3N3CCCCC3)CC2)n1")
"≥ 7.00"
>>> recorded_value("CC(=O)Nc1ccn(C(=O)N2CCC3(CCCN3Cc3ccc(C(F)(F)F)cc3N3CCC(F)(F)CC3)CC2)n1")
"≥ 7.00"
>>> recorded_value("CC(=O)Nc1ccn(C(=O)N2CCC3(CCCN3Cc3ccc(N4CCCC4)c(Cl)c3)CC2)n1")
"≥ 7.00"

Kindly indicate its recorded pIC50. Item: Cc1ccc(CN2CCN(C(=O)n3ccc(NS(C)(=O)=O)n3)CC2)c(N2CC3CCC(C2)O3)c1
≥ 7.00

Kindly indicate its recorded pIC50. Item: Cc1c(CN2CCCC23CCN(C(=O)n2ccc(NS(C)(=O)=O)n2)CC3)cccc1N1CCCC1
5.00 to 6.00

----------
Biological target: MAGL (Mus musculus, UniProt O35678)
Construct: Proteomes (mouse brain membrane fraction or cell lysates); from tissue; host or cells: mouse brain membrane fraction (or cell lysates)
Sequence (O35678 1-303): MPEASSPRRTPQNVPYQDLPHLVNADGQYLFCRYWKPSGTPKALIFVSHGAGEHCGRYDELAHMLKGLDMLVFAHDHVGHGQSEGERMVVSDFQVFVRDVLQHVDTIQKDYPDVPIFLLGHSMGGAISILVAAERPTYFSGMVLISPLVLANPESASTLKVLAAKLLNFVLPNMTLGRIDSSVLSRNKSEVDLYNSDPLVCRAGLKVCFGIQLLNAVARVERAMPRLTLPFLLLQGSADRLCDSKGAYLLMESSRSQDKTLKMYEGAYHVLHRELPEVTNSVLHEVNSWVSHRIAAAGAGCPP
Experiment: In vitro competitive activity-based protein profiling (mouse), MAGL gel band
Format: biochemical
Conditions: read-out: MAGL % inh. 1 μM
endpoint-label: inhibition at 1 µM

Worked set:
>>> recorded_value("CC(=O)N1CC2(CCN(c3cc(C(F)(F)F)ccc3CN3CCN(C(=O)n4ccc(NS(C)(=O)=O)n4)CC3)CC2)C1 [Example 228]")
"≥ 75%"
>>> recorded_value("CC(=O)Nc1ccn(C(=O)N2CCN(Cc3ccc(C(F)(F)F)cc3N3CCN(C4CC4)CC3)CC2)n1 [Example 47]")
"≥ 75%"
>>> recorded_value("CS(=O)(=O)Nc1ccn(C(=O)N2CCC3(CCCN3Cc3ccc(N4CCOCC4)cc3C(F)(F)F)CC2)n1 [Example 164]")
"0 to 25%"
>>> recorded_value("CC(=O)Nc1ccn(C(=O)N2CCN(Cc3ccc(C(F)(F)F)cc3N3CCC(C(C)(C)O)CC3)CC2)n1 [Example 266]")
"≥ 75%"
>>> recorded_value("CC(=O)N1CCN(c2cc(CN3CCN(C(=O)n4ccc(NS(C)(=O)=O)n4)CC3)cc(C(F)(F)F)c2)CC1 [Example 251]")
"25 to 50%"
>>> recorded_value("Cc1cc(-c2ccccc2)ccc1CN1CCN(C(=O)n2ccc(NS(C)(=O)=O)n2)CC1 [Example 150]")
"≥ 75%"

Alright, here's another molecule for you.
Kindly indicate its recorded inhibition at 1 µM. Item: CC(=O)Nc1ccn(C(=O)N2CCC3(CCCN3Cc3ccc(C(F)(F)F)c(N4CCOCC4)c3)CC2)n1 [Example 105]
≥ 75%

----------
biological target: MAGL (Mus musculus); construct: Proteomes (mouse brain membrane fraction or cell lysates); from tissue; host or cells: mouse brain membrane fraction (or cell lysates); assay: In vitro competitive activity-based protein profiling (mouse), MAGL gel band; assay type: biochemical; details: read-out: MAGL % inh. 1 μM
Reported inhibition at 1 µM values for the following compounds.

Worked set:
>>> recorded_value("CCN1CCN(c2cc(C(F)(F)F)ccc2CN2CCCC23CCN(C(=O)n2ccc(NC(C)=O)n2)CC3)CC1 [Example 31]")
"≥ 75%"
>>> recorded_value("CC1CCCN1c1cc(CN2CCN(C(=O)n3ccc(NS(C)(=O)=O)n3)CC2)cc(C(F)(F)F)c1 (stereo not drawn) [Example 191]")
"≥ 75%"
>>> recorded_value("CS(=O)(=O)Nc1ccn(C(=O)N2CCN(Cc3ccc(C(F)(F)F)cc3N3CCN(C(N)=O)CC3)CC2)n1 [Example 171]")
"≥ 75%"
>>> recorded_value("CC(=O)Nc1ccn(C(=O)N2CCN(Cc3cccc(C(F)(F)F)c3-c3nnn[nH]3)CC2)n1 [Example 223]")
"≥ 75%"
>>> recorded_value("CC(=O)Nc1ccn(C(=O)N2CCC3(CCCN3Cc3ccc(C(F)(F)F)cc3N3CCCCC3)CC2)n1 [Example 19]")
"≥ 75%"
>>> recorded_value("CS(=O)(=O)Nc1ccn(C(=O)N2CCN(Cc3ccc(Cl)c(N4CC5CN(S(C)(=O)=O)CC5C4)c3)CC2)n1 (stereo not drawn) [Example 217]")
"≥ 75%"

Kindly indicate its recorded inhibition at 1 µM. Item: CCN1CCN(c2cc(C(F)(F)F)ccc2CN2CCCC23CCN(C(=O)n2ccc(NS(C)(=O)=O)n2)CC3)CC1 [Example 238]
0 to 25%

Kindly indicate its recorded inhibition at 1 µM. Item: CC(=O)Nc1ccn(C(=O)N2CCN(Cc3ccc(Cl)cc3N3CCC4(C3)CN(S(C)(=O)=O)C4)CC2)n1 [Example 55]
≥ 75%

----------
Reported inhibition at 5 mg/kg values for the following compounds.
Target: MAGL (Mus musculus, UniProt O35678)
Construct: Proteomes (mouse brain membrane fraction or cell lysates); from tissue; host or cells: mouse brain membrane fraction (or cell lysates)
Sequence (O35678 1-303): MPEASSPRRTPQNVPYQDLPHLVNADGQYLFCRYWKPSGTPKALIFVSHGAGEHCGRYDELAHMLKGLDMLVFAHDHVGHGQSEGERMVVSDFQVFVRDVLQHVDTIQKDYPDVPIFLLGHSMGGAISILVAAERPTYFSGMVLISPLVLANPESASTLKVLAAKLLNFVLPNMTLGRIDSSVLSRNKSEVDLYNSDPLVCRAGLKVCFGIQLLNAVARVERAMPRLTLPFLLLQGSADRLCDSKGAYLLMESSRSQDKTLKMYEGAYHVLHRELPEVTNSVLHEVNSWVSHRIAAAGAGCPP
Experiment: Mouse brain proteomes from inhibitor treated mice (oral gavage, sacrificed 4 h after administration)
Format: in vivo
Conditions: read-out: MAGL % inh. 5 mg/kg

>>> recorded_value("CC(=O)Nc1ccn(C(=O)N2CCC3(CCCN3Cc3cc(N4C5CCC4COC5)cc(C(F)(F)F)c3)CC2)n1 [Example 62]")
"0 to 25%"
>>> recorded_value("CC(=O)Nc1ccn(C(=O)N2CCN(Cc3ccc(C(F)(F)F)cc3N3CCC4(CCOCC4)C3)CC2)n1 [Example 45]")
"0 to 25%"
>>> recorded_value("CS(=O)(=O)Nc1ccn(C(=O)N2CCN(Cc3ccc(Cl)c(-c4nccs4)c3)CC2)n1 [Example 221]")
"0 to 25%"
>>> recorded_value("CS(=O)(=O)Nc1ccn(C(=O)N2CCN(Cc3ccc(Cl)c(N4CCC(F)CC4)c3)CC2)n1 [Example 201]")
"≥ 75%"

Kindly indicate its recorded inhibition at 5 mg/kg. Item: Cc1c(CN2CCCC23CCN(C(=O)n2ccc(NS(C)(=O)=O)n2)CC3)cccc1N1CCCCC1 [Example 142]
0 to 25%

Kindly indicate its recorded inhibition at 5 mg/kg. Item: CC(=O)Nc1ccn(C(=O)N2CCC3(CCCN3Cc3ccc(C(F)(F)F)c(N4CCCC4)c3)CC2)n1 [Example 106]
25 to 50%

Kindly indicate its recorded inhibition at 5 mg/kg. Item: CC(=O)Nc1ccn(C(=O)N2CCN(Cc3ccc(C(F)(F)F)cc3N3CC4COCC4C3)CC2)n1 (stereo not drawn) [Example 49]
0 to 25%

Kindly indicate its recorded inhibition at 5 mg/kg. Item: CS(=O)(=O)Nc1ccn(C(=O)N2CCN(Cc3ccc(C(F)(F)F)cc3N3CCC(C(=O)O)CC3)CC2)n1 [Example 186]
0 to 25%

Kindly indicate its recorded inhibition at 5 mg/kg. Item: CC(=O)Nc1ccn(C(=O)N2CCC3(CCCN3Cc3ccc(Cl)c(C)c3)CC2)n1 [Example 94]
≥ 75%

Kindly indicate its recorded inhibition at 5 mg/kg. Item: CC(=O)Nc1ccn(C(=O)N2CCC3(CCCN3Cc3ccc(Cl)cc3N3CCCCC3)CC2)n1 [Example 33]
25 to 50%
